Please go through the items and note down their EC50.
# studyTarget: ABCD2 WT (Homo sapiens)
# Sequence (Q9UBJ2 whole entry): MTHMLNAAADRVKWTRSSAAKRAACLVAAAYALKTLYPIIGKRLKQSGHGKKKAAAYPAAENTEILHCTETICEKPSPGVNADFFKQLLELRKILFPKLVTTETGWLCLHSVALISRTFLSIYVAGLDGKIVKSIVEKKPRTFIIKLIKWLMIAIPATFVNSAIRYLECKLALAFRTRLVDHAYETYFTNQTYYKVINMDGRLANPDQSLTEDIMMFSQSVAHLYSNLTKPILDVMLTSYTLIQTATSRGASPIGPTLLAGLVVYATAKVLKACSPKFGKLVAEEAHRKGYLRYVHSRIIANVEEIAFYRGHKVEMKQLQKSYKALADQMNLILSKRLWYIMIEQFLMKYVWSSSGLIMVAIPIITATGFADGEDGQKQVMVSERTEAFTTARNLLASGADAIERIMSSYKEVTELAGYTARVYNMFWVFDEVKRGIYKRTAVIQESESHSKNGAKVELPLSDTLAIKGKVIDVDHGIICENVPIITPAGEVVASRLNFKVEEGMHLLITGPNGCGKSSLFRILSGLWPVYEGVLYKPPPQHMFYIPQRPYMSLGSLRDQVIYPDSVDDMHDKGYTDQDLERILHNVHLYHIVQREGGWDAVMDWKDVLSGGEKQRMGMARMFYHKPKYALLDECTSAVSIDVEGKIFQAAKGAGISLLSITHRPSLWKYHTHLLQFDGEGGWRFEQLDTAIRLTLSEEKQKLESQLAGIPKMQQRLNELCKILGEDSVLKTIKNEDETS
# measurementNotes: D2 correction dose-response assay: ABCD2 WT HiBit protein expression
# testSettings: HEK-293/ABCD2 WT cells, 24 hours treatment, HiBit luminescence; class combines EC50 and Mean MaxAct (fold); read-out: ABCD2 WT EC50, Emax

Value lookup for EC50; key = Cc1cc(C(F)F)nc(C2CC2)c1Oc1nc(-c2cncc(C#N)c2)ccc1S(=O)(=O)NC1CC1 [Compound I-288]
1 to 10 µM

State the recorded EC50 for this entry: Cc1nc(C(F)(F)F)nc(C2CC2)c1Oc1nc(-c2cncc(C#N)c2)ccc1S(=N)(=O)C1CC1 (stereo not drawn) [Compound I-303]
> 25 µM

Item under review: CNS(=O)(=O)c1ccc(N2CCN(C)C(=O)C2)nc1Oc1c(C)cc(C)cc1C [Compound I-92] . Reported EC50?
> 25 µM

Sample Cc1cc(C)c(Oc2[nH]c(-c3cncc(C#N)c3)cc(=O)c2NS(C)(=O)=O)c(C)n1 [Compound I-325] — what was its EC50?
10 to 25 µM

# input molecule: Cc1cc(C)c(Oc2nc(-c3cncc(Cl)c3)ccc2S(C)(=O)=O)c(C)c1 [Compound I-104] ; wanted: its EC50
> 25 µM

Request the reported EC50 associated with Cc1cc(C)c(Oc2nc(N3CCN(C(=O)OC(C)C)CC3)ccc2NS(C)(=O)=O)c(C)c1 [Compound I-32]
1 to 10 µM

Recorded EC50 of Cc1cc(C)[n+]([O-])c(C)c1Oc1nc(-c2cncc(C#N)c2)ccc1NS(C)(=O)=O [Compound I-311] , please.
1 to 10 µM

# get_value(readout='EC50', item= Cc1cc(C)c(Oc2nc(N3CCC4(CN(C(=O)C5CC5)C4)C3)ccc2NS(C)(=O)=O)c(C)c1 [Compound I-25] )
1 to 10 µM

# query: EC50 of entry Cc1cc(C(F)(F)F)nc(C)c1Oc1nc(-c2ccnc(C#N)c2)ccc1NS(C)(=O)=O [Compound I-219]
< 1 µM

Which EC50 is reported for this molecule? Cc1cc(C)c(Oc2nc(-c3cncc(C4CC4)c3)ccc2NS(C)(=O)=O)c(C)n1 [Compound I-232]
< 1 µM

Query: EC50; subject: Cc1nc(C)c(Oc2nc(-c3cncc(C#N)c3)ccc2NS(C)(=O)=O)c(C)n1 [Compound I-234]
< 1 µM

May I ask what EC50 has been recorded for Cc1cc(C)c(Oc2nc(-c3cncc(C#N)c3)ccc2NS(=O)(=O)C2CC2)c(C)n1 [Compound I-266] ?
> 25 µM

Please look up its EC50: Cc1cc(C)c(Oc2cc(-c3cncc(Cl)c3)cnc2NS(C)(=O)=O)c(C)c1 [Compound I-60]
1 to 10 µM

Requested read-out: EC50. Entry: Cc1cc(C)c(Oc2nc(N3CCn4c(cnc4C)C3)ccc2NS(C)(=O)=O)c(C)c1 [Compound I-30]
1 to 10 µM

Return reported EC50; argument: Cc1cc(C)c(Oc2nc(-n3cnc(C#N)c3)ccc2NS(C)(=O)=O)c(C)c1 [Compound I-273]
< 1 µM

I am curious: what EC50 value has been reported for CNS(=O)(=O)c1ccc(-c2cncc(Cl)c2)nc1Oc1c(C)cc(C)cc1C1CC1 [Compound I-77] ?
< 1 µM

Please look up its EC50: Cc1cc(C)c(Oc2nc(-c3cncc(C#N)c3)ccc2NS(=O)(=O)C2(C)CC2)c(C)n1 [Compound I-172]
> 25 µM

Look up EC50 for this molecule: Cc1cc(C)c(Oc2nc(-c3cncc(Cl)c3)ccc2S(=O)(=O)N[C@@H](c2ccccc2)C(F)(F)F)c(C)c1 [Compound I-83]
1 to 10 µM

I would be grateful if you could share the reported EC50 for Cc1cc(C)c(Oc2nc(-n3cnc(C#N)c3)ccc2N(C)S(C)(=O)=O)c(C)c1 [Compound I-272] .
> 25 µM

What does the data say about its EC50? Entry: Cc1cc(C)c(Oc2nc(N3CC4(C3)CN(S(=O)(=O)C3CC3)C4)ccc2NS(C)(=O)=O)c(C)c1 [Compound I-43]
> 25 µM

Look at this molecule and give its reported EC50. Cc1cc(C)c(Oc2nc(-c3cncc(C#N)c3)ccc2NS(C)(=O)=O)c(OC2CC2)n1 [Compound I-176]
< 1 µM

Need EC50 of Cc1cc(C(F)(F)F)nc(C2CC2)c1Oc1nc(-c2cncc(Cl)c2)ccc1NS(C)(=O)=O [Compound I-158] , thanks.
< 1 µM

Please look up its EC50: Cc1cc(C)c(Oc2cc(-c3cncc(Cl)c3)cnc2N(C)S(=O)(=O)c2cnn(C)c2)c(C)c1 [Compound I-59]
1 to 10 µM

Query: EC50; subject: Cc1cc(C)c(Oc2nc(-c3cncc(Cl)c3)cnc2S(N)(=O)=O)c(C)c1Cl [Compound I-90]
1 to 10 µM

Which EC50 value belongs to Cc1nc(C2CC2)nc(C2CC2)c1Oc1nc(-c2cncc(C#N)c2)ccc1NS(C)(=O)=O [Compound I-150] ?
< 1 µM

# input molecule: Cc1cc(C(F)(F)F)nc(C2CC2)c1Oc1nc(-c2cncc(C#N)c2)ccc1N(C)S(=O)(=O)C1CC1 [Compound I-139] ; wanted: its EC50
1 to 10 µM

EC50 for Cc1cc(C)c(Oc2nc(-c3cncc(Cl)c3)ccc2N(C)S(=O)(=O)c2cccnc2)c(C2CC2)c1 [Compound I-53] ?
> 25 µM

Requested read-out: EC50. Entry: Cc1cc(C(F)(F)F)nc(C2CC2)c1Oc1nc(-c2cncc(C#N)c2)ccc1N=S(C)(C)=O [Compound I-286]
< 1 µM

Find the recorded EC50 belonging to COc1nc(C)cc(C)c1Oc1nc(-c2cncc(C#N)c2)ccc1NS(C)(=O)=O [Compound I-209] and report it.
< 1 µM

Entry Cc1cc(C)c(Oc2nc(-c3cncc(C#N)c3)ccc2S(C)(=N)=O)c(C)c1 (stereo not drawn) [Compound I-279] : reported EC50 = ?
10 to 25 µM
